The measured values listed here are drawn from the supplement of paper PMC6757056.

B1: library; a variant is named by its letters at N, in order (parent)
chain: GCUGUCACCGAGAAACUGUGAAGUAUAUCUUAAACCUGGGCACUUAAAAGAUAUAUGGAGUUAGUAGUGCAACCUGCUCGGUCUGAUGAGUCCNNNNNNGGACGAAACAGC

Variants of: B1
Test: normalized RNA/DNA level with ligand (relative to sTRSVctl = 100) (log10 (% of sTRSVctl)); HEK293T; ligand: cyclic di-GMP (c-di-GMP-II aptamer); ligand concentration (+) RNA-Seq: 1 mM; higher = less ribozyme self-cleavage, higher mRNA level
Cond: reporter: mCherry (pCS4076), ligand present: yes
Measurement kind: normalized RNA/DNA level with ligand (log10)
# print the numeric value only

[[record]]
change = "UACUGU"
measurement = 1.79

[[record]]
change = "CGUGAG"
measurement = 1.83

[[record]]
change = "UCGCGC"
measurement = 1.89

[[record]]
change = "ACAAGG"
measurement = 1.54

[[record]]
change = "UGGGCU"
measurement = 1.89


Request: Request the reported normalized RNA/DNA level with ligand (log10) associated with CGUAGG
Result: 1.82

Request: Request the reported normalized RNA/DNA level with ligand (log10) associated with AGAAAC
Result: 1.8

Request: Request the reported normalized RNA/DNA level with ligand (log10) associated with UGAGGG
Result: 1.79

Request: Request the reported normalized RNA/DNA level with ligand (log10) associated with ACGCUC
Result: 1.82

Request: Request the reported normalized RNA/DNA level with ligand (log10) associated with CGUAGC
Result: 1.83

Request: Request the reported normalized RNA/DNA level with ligand (log10) associated with AUAUGG
Result: 1.75

Request: Request the reported normalized RNA/DNA level with ligand (log10) associated with AGUGCA
Result: 1.79
